# measurement description: growth inhibitors of tim10-1 mutant yeast, primary screen, luminescence, uHTS (AID 463190);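 also: mutant grown at 25 °C; 0% = DMSO wells with yeast and 100% = wells holding no yeast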
# applied conditions: S. cerevisiae tim10-1 ts strain growth, BacTiter-Glo, 24 h; at 20 µM
Hit rate of the full screen: of about 330,000 compounds, about 7,300 (2.2%) were called active.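 The calls were made as follows: active = inhibition of at least 40%; inactive = the rest.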 Many of the other results were omitted from the sample, so actives are more common in it than they were.
Thanks in advance; please answer with one of these: active, inactive

Req: // outcome(item) with item = Cn1c(C(=O)N2CCCC(C(=O)NCc3ccccc3)C2)cc2sccc21 (stereo not given)
Resp: inactive

Req: // outcome(item) with item = CC1(C)CCSC(/C=C/c2ccccc2)=N1
Resp: active

Req: // outcome(item) with item = O=C(NCc1ccc(Cl)cc1)NCc1ccc(Cl)cc1
Resp: inactive

Req: // outcome(item) with item = COc1ccc(/C=N/Nc2ncnc3sc4c(c23)CCCC4)cc1O
Resp: active

Req: // outcome(item) with item = CCOC(=O)c1ccc(N2C(=O)CC(N3CCC(C(=O)OCC)CC3)C2=O)cc1 (stereo not given)
Resp: active

Req: // outcome(item) with item = COc1ccc(NC(=O)CCCNC(=O)Cn2cnc3sc4c(c3c2=O)CCCC4)cc1OC
Resp: inactive

Req: // outcome(item) with item = COc1ccc(C(=O)Nc2nc(-c3ccc(OC)cc3)c(-c3ccc([N+](=O)[O-])cc3)s2)cc1
Resp: inactive

Req: // outcome(item) with item = O=C(Cc1ccccc1)Nc1ccc(C(=O)Nc2ccccc2C(=O)O)cc1
Resp: inactive

Req: // outcome(item) with item = CCN(CC)S(=O)(=O)c1cc(C(=O)Nc2cc(S(=O)(=O)N3CCOCC3)ccc2N2CCCC2)ccc1F
Resp: inactive

Req: // outcome(item) with item = COc1ccc(NC(=O)CCNC(=O)Cn2cnc3sc4c(c3c2=O)CCCC4)cc1OC
Resp: inactive

----------
# measurement description: growth inhibitors of tim10-1 mutant yeast, primary screen, luminescence, uHTS (AID 463190);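 also: mutant grown at 25 °C; 0% = DMSO wells with yeast and 100% = wells holding no yeast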
# applied conditions: S. cerevisiae tim10-1 ts strain growth, BacTiter-Glo, 24 h; at 20 µM; hits give high values
About 7,300 (2.2%) of roughly 330,000 compounds were called active. What follows is part of a selection rich in actives, with near analogues and random picks from the rest.
property name: inhibition (%)
Answer format: numeric, % implied, no suffix.

Req: Write down inhibition measured for item N/C(=N\OC(=O)Nc1ccc(Cl)c(Cl)c1)c1ncc(C(F)(F)F)cc1Cl
Resp: 49.2

Req: Write down inhibition measured for item Cc1ccoc1C(=O)Nc1cccc(Oc2ccccc2)c1
Resp: 49.3

Req: Write down inhibition measured for item O=S(=O)(Nc1cc(Cl)ccc1N1CCOCC1)c1ccccc1Cl
Resp: 12

Req: Write down inhibition measured for item CCS(=O)(=O)c1cc([N+](=O)[O-])c(Sc2ccccc2N)s1
Resp: 7.45

Req: Write down inhibition measured for item Nc1ccccc1SC(C[N+](=O)[O-])c1ccccc1 (stereo not given)
Resp: 48.9

Req: Write down inhibition measured for item Cc1nc(NC(=O)CCC(=O)O)sc1C(=O)N(C)C
Resp: 3.6

Req: Write down inhibition measured for item CN=C1C=C/C(=N/N=c2\ccn(O)cc2C)C=C1C
Resp: 16.6

Req: Write down inhibition measured for item N/C(=N\OC(=O)CCCC(=O)O)c1ncc(C(F)(F)F)cc1Cl
Resp: 1.66

Req: Write down inhibition measured for item CC(Nc1ccccc1)c1cccnc1 (stereo not given)
Resp: -3.38

Req: Write down inhibition measured for item Cc1cccc(NC(=S)NCCN(C2CCCCC2)C2CCCC2)c1
Resp: 28.1

Req: Write down inhibition measured for item COc1ccccc1CCNC(=O)c1c(C)nn(CC(C)C)c1Cl
Resp: 16.6

Req: Write down inhibition measured for item CC1Cc2ccccc2N1CC(=O)Nc1ccc2c(c1)OC(F)(F)O2 (stereo not given)
Resp: 20.8

Req: Write down inhibition measured for item Cc1ccccc1Nc1nc(N)nc(COC(=O)CCC(=O)c2ccc(F)cc2)n1
Resp: 15.1

Req: Write down inhibition measured for item O=C(Nc1nnc(-c2ccc(Cl)cc2)o1)c1ccccc1Br
Resp: 6.25

Req: Write down inhibition measured for item CCN(Cc1ccccc1)C(=O)CCS(=O)(=O)c1ccc2c(c1)oc(=O)n2C
Resp: -13

Req: Write down inhibition measured for item O=C(Nc1nnc(-c2ccccc2)o1)c1cc(-c2cccs2)nc2ccccc12
Resp: 48.6

Req: Write down inhibition measured for item CC(=O)Oc1ccc(C(=O)Nc2nccs2)cc1
Resp: 8.42

Req: Write down inhibition measured for item O=C(NCC(c1cccs1)N1CCOCC1)c1cc(Cl)ccc1[N+](=O)[O-] (stereo not given)
Resp: 3.29

Req: Write down inhibition measured for item Cc1ccc(S(=O)(=O)NCC(=O)NNC(=O)c2ccc(Br)cc2)cc1C
Resp: 6.99

Req: Write down inhibition measured for item O=[N+]([O-])c1ccc2nc(-c3ccccn3)[nH]c2c1
Resp: 34.1
